# Tested on: CD2F1 mice, L1210 leukemia ip, survival T/C
# assay remarks: NCI In Vivo Anticancer Drug Screen. Data for tumor model L1210 Leukemia (intraperitoneal) in CD2F1 (CDF1) mice
# test parameters: endpoint: mean survival time; dose: 25.0 mg/kg/injection; schedule: Q01DX009 (ip); vehicle: saline; higher = longer survival
Inconclusive results and toxic doses are left out.
endpoint name: T/C

// known answers, use as guide
CCOP(=O)(NCCOC)OCC; 94 % of control
Cc1ccc(S(=O)(=O)SC(Cl)(Cl)Cl)cc1; 102 % of control
ClCC(Cl)CN1CCCCC1 (centres undefined); 100 % of control
O=C(C[n+]1ccc2ccccc2c1)c1ccc(Br)cc1; 98 % of control

Provide each entry's T/C from the list below.
1. CS(=O)(=O)OCCN(CCOS(C)(=O)=O)c1ccc(C=O)cc1
2. CCN(CC)c1cc(Cl)ccc1Cl
3. N=C(N)SCc1cccs1
4. CCCCNC(C)(C)C(=O)c1cccs1
5. Nc1ncnc2c1ncn2C1OC(C(=O)OCCO)C(O)C1O (centres undefined)

1. 102 % of control
2. 102 % of control
3. 100 % of control
4. 94 % of control
5. 114 % of control
